Each recorded value in this set is attributed to the nanobody polyreactivity screen of Harvey et al. (2022).

- test details: yeast display, Sf9 membrane polyspecificity reagent, FACS + sequencing; frameworks hold sequencing errors
quantity measured: polyreactivity (PSR sort gate)

Observe how each entry below is paired with its result.
QVQLVESGGGLVQAGGSLRLSCAASGRTISVYGMGWYRQAPGKERELVASITWRGGTTYYADSVKGRFTISRDNAKNTVYLQMNSLKPEDTAVYYCAAYWPYTTYRYRYDYWGQGTQVTVSS | high polyreactivity
QVQLVESGGGLVQAGGSLRLSCAASGFTFTWYAMGWYRQAPGKERELVAAISSGGGRTYYADSVKGRFTISRDNAKNTVYLQMNSLKPEDTAVYYCNAVAGGVYVDNGYDYWGQGTQVTVSS | high polyreactivity
QVQLVESGGGLVQAGGSLRLSCAASGSTFFRYAMGWYRQAPGKERELVAAITSSGGRTYYADSVKGRFTISRDNAKNTVYLQMNSLKPEDTAVYYCADASGTSPYDYWGQGTQVTVSS | high polyreactivity
QVQLVESGGGLVQAGGSLLLSCAASGFIFPPYDMGWYRQAPGKEMELVAGISDVGTTYYADSVKGRFTISRDNAKNTVYLQMNSLKPEDTAVYYCAAESQGDDQFWTGGYDSWGQGTQVTVSS | low polyreactivity

Record polyreactivity (PSR sort gate) per entry; entries follow.
1. QVQLQESGGGLVQAGGSLRLSCAASGTISTDSYMGWYRQAPGKESKFVATIGYGGITYYADSVKGRSTISRDSAKNTVYLQMNILKPEDTAVYYCAVNSYYPDHYWYWGRGTQVTVSS
2. QVQLVESGGGLVQAGGSLRLSCAASGSTFDPNTMGWYRQAPGKDRELVAAITSSTASTYYADSVKGRFTISRDNAKNTVYLQMNSLKPEDTAVYYCAADSEQDNLRYYRWVWYYYWGQGTQVTVSS
3. QVQLVESGGGLVQAGGSLRLSCAASGSTIVGYAMGWYRQAPGKERELVAAISRTGASTYYADSVKGRFTISRDNAKNTVYLQMISLKPEDTAVYYCAAGREYWGVTREYWGQGTQVTVSS
4. QVQLQESRGGLVQVGGSQRLSCAASGNIFYNYAMGWYRHANGKEREFDATINHGTSINYADSVKGRFTISRDNAKNTLYLQMNSLKPEDTAVSYCAADLSWTDNLFYWGQGTQVTVTS
5. QVQLVESGGGLDQAGGSLRLSCAASGRIFKRYAMGWYRQAPGKERELVAAITRSGTRTYYADSVKGRFTISRDNAKNTVYLQMNSLKPEDTAVYYCAAALGWYSAFGYWGQGTQVTVSS

high polyreactivity
low polyreactivity
high polyreactivity
low polyreactivity
high polyreactivity

Record polyreactivity (PSR sort gate) per entry; entries follow.
1. QVQLQESGGGLVQAGGSLRLSCAASGTIFTARFMGWYRQAPGKERELVATITDGGNTNHADSVKGRFTISRDNAKNTVYLQMNSLKPEDAAVYYFAAGEVDNDTLLYWGQGSQVTVSS
2. QVQLVESGGGLVQAGGSLRLSCAASGFNFARNTMGWYRQAPGKERELVAAISSSGGSTYYADSVKGRFTISRDNAKNTVYLQMNSLKPEDTAVYYCNKGYTGLYGYDYWGQGTQVTVSS

["low polyreactivity", "high polyreactivity"]

====

- test details: yeast display, Sf9 membrane polyspecificity reagent, FACS + sequencing; frameworks hold sequencing errors
quantity measured: polyreactivity (PSR sort gate)

Observe how each entry below is paired with its result.
QVQLVESGGGLVQAGGSLRLSCAASGRTFYKYAMGWYRQAPGKERELVAAITSGGGRTYYADSVKGRFTISRDNAKNTVYLQMNSLIPEDTAVYYCNAVLPLAKYEYDSWGQGTQVTVSS | high polyreactivity
QVQLVESGGGLVQAGGSLRLSCAASGFIFGGYAMGWYRQAPGKERELVAAITGGGTTYYADSVKGRFTISRDNAKNTVYLQMNSLKPEDTAVYYCAAAYRLGYHKYYYWGQGTQVTVSS | high polyreactivity
QVQLVESGGGLVQAGCSLRLSSAASGSTFLGYAMGWYRQAPGKERELVAAITYSAGSTYYADSVKGRFTISRDNAKNTVYLQMNSLKPEDTAVYYCSKRYSGYDHWGQGTQVTVSS | low polyreactivity
QVQLVESGGGLVQAGGSLRLSCAASGRIFVGYGMGWYRQAPGKERELVASIDTGGSTYYADSVKGRFTISRDNAKNTVYLQMNSLKPDDTAVYYCAADYQSYTSLTGYHNSEGDPWGQGTQVTVSS | low polyreactivity

Record polyreactivity (PSR sort gate) per entry; entries follow.
1. QVQLVESGGGLVQAGGSLRLSCAASGFIIPYYAMGWYRQAPGKERELVAAISRSGGSTYYADSVKGRFTISRDNAKNTVYLQMHSLKPEDTAVYYCATRKGGTLYNYWGQGTQVTVSS
2. QVQLVESGGGLVQAGGSLRLSCAASGFTLFANVMGWYRQAPGKERELVAAISWRSGNTYYADSVKGRFTISRDNAKNTVYLQMNSLKPEDTAVYYCAADTTGDQHSWGTSGIIEGDYWGQGTQVTVSS

1: high polyreactivity; 2: low polyreactivity

Record polyreactivity (PSR sort gate) per entry; entries follow.
1. QVQLVESGGGLVQEGGSLRLSCASSGFTFAYNAMVLYRQAPGKERELVAGINSSGDGTYYADSVKGRFTISRDNAKNTVYLQMNSLKPEETAVYYCAADYTRFYPDGSDVDYDYWGQGTQVTVSS
2. QVQLVESGGGLVQAGGSLRLSSAASGSTFTAYAMGWYRQAPGTERELVAAISRSRGRTYYADSVKGRFTISRDNAKYTVYLEMISLKPEDTAVLYCNARGGSDGDYWGQGTQVTVSS
3. QVQLVESGGGLVQAGGSLRLSCAASGRTFDYYAMGWFRQAPGKERELVAAISSSGGRTYYADSVKGRFTISRDNAKNTVYLQMNSLKPEDTAVYYCNAVVSRNYEYWGQGTQVTVSS
4. QVQLVESGGGLVQAGGSLRLSCAASGSIFSYYAMGWYRQAPGKERELVAGITWSGGRTYYADSVKGRFTISRDNAKNTVYLQMNSLKPEDTAVYYCAAVQLFSRRSRYDYWGQGTQVTVSS

low polyreactivity
high polyreactivity
high polyreactivity
high polyreactivity

Specify reported polyreactivity (PSR sort gate) for the sequence shown: QVQLVESGGGLFQAGGSHRLSCAASGSTFYYKAMGWYRQAPGKESELVARISRSGGSTYADSVKGRFTISRDNAKNNVYLQMNSLKPEDTAVYYCNKRGFYTPSVSYDYWGQGTQVTVSS
low polyreactivity
